Values compiled from patent US20220056134A1.

TARGET: T1, MET-R Fc (R&D Systems, catalog number 8614-MT) (UniProt P08581 25-932)
T1 construct: Bought reagent used as SPR analyte; not shown: Fc part of the bought fusion protein
T1 sequence (P08581 25-932 limits assumed): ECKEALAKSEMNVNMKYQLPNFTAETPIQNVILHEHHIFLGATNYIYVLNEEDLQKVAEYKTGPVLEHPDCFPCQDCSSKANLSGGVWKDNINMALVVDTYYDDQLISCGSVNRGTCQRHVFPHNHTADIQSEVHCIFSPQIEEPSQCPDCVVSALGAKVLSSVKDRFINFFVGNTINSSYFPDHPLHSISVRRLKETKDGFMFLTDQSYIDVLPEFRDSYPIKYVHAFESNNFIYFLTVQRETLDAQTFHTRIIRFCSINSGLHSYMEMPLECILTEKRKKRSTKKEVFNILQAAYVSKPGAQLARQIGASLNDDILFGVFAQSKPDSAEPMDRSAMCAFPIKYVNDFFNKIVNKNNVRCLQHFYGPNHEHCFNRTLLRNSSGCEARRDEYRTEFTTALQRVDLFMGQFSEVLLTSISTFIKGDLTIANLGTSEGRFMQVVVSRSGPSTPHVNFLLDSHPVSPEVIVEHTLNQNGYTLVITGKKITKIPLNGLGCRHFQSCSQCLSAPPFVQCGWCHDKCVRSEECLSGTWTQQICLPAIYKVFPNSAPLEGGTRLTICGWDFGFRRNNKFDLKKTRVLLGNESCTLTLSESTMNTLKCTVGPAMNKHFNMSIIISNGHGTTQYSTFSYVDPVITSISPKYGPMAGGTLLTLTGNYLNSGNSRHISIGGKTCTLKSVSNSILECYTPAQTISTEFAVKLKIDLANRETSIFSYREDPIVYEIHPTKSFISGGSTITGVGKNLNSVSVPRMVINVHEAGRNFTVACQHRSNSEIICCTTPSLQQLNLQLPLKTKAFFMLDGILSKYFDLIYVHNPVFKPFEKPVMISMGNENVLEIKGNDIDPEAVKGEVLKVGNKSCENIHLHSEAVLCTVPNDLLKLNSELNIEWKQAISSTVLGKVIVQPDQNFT
ASSAY_SUMMARY: SPR (BIAcore T200), Fab captured on anti-Fab chip, MET-R Fc as analyte, 25 C, 1:1 model
PROPERTY_LABEL: kon (M⁻¹ s⁻¹)
Answer format: numeric, M⁻¹ s⁻¹ implied, no suffix.

As a guide, the following entries are already answered.
anti-MET Fab variant CDR L3 P95A (Fab, V domains shown, Fab; variable domains only; Kabat numbering) VH: EVQLVESGGGLVQPGGSLRLSCAASGYTFTSYWLHWVRQAPGKGLEWVGMIDPSNSDTRFNPNFKDRFTISADTSKNTAYLQMNSLRAEDTAVYYCATYRSYVTPLDYWGQGTLVTVSS VL: DIQMTQSPSSLSASVGDRVTITCKSSQSLLYTSSQKNYLAWYQQKPGKAPKLLIYWASTRESGVPSRFSGSGSGTDFTLTISSLQPEDFATYYCQQYYAYAWTFGQGTKVEIK    153000
anti-MET Fab variant CDR L3 W96A (Fab, V domains shown, Fab; variable domains only; Kabat numbering) VH: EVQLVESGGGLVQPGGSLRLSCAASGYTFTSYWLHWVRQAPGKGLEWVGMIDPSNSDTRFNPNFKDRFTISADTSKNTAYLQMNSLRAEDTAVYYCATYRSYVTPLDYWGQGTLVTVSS VL: DIQMTQSPSSLSASVGDRVTITCKSSQSLLYTSSQKNYLAWYQQKPGKAPKLLIYWASTRESGVPSRFSGSGSGTDFTLTISSLQPEDFATYYCQQYYAYPATFGQGTKVEIK    84000

// next item, kon requested
Tell me the measured kon of Parental anti-MET Fab (onartuzumab / 5D5) (Fab, V domains shown, Tested as Fab) VH: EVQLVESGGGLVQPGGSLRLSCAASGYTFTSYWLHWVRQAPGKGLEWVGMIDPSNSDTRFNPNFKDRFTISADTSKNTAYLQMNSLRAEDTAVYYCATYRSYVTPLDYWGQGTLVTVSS VL: DIQMTQSPSSLSASVGDRVTITCKSSQSLLYTSSQKNYLAWYQQKPGKAPKLLIYWASTRESGVPSRFSGSGSGTDFTLTISSLQPEDFATYYCQQYYAYPWTFGQGTKVEIK , please.
179000
